# protocol notes: Pharmacokinetics after 3 mg/kg IV administration, plasma
# Assay type: in vivo, CD1 mice
# measurement parameters: CD1, mouse, plasma, iv, 3 mg/kg, mean

{"molecule": "COc1cc2c(cc1OCCCCCCC(=O)O)C[C@@H](C(C)C)n1cc(C(=O)O)c(=O)cc1-2 [Example 6]", "AUC(0-t) (ng·h/mL)": 255}

---

# protocol notes: Pharmacokinetics after 3 mg/kg IV administration, plasma
# Assay type: in vivo, CD1 mice
# measurement parameters: CD1, mouse, plasma, intravenous, 3 mg/kg, 0.25 h, individual mice, read-out: Plasma concentration

{"compound structure": "COc1cc2c(cc1OCCCCCCC(=O)O)C[C@@H](C(C)C)n1cc(C(=O)O)c(=O)cc1-2", "concentration at 0.25 h (ng/mL)": 82.3}
